Each entry below lists one item and its recorded self-cleavage value.
B1: HDV Ribozyme (parent)
chain: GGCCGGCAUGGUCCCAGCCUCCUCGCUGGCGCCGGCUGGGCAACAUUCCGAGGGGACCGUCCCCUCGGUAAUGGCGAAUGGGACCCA

# Variants of: B1
# testMethodNotes: self-cleavage, relative activity (ratio to wild type); higher = more cleavage; co-transcriptional
Please give only the number in your answer, with no unit.

Answered examples (2):
mutantId	endpointResult
C24U C41U	0.616
G31A A42C	0.102

I would be grateful if you could share the reported self-cleavage for G1A C58A .
0.0978

The values you see were collected from the RNAGym collection of RNA variant scans (doi:10.7554/elife.80360).
